TARGET OR SYSTEM: factor Xa, human (Homo sapiens, UniProt P00742)
Sequence (P00742 235-488 limits assumed): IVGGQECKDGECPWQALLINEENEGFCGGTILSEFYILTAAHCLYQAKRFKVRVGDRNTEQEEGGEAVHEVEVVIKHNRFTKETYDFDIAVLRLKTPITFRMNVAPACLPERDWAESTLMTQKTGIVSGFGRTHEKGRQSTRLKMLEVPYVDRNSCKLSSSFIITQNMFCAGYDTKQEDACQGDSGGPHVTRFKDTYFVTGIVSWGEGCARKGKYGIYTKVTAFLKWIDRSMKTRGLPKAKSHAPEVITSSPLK
Sequence (P00742 41-179 partner limits assumed): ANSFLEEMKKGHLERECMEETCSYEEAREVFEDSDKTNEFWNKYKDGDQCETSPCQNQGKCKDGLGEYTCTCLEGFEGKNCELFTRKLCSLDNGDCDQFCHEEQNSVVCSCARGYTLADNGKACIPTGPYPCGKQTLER
ASSAY ENDPOINT: IC50 (nM)
Numbers only, in nM.

Prompt line: # get_value(readout='IC50', item= `CS(=O)(=O)c1ccccc1-c1ccc(CC(=O)N(Cc2cccc(C(=N)N)c2)c2ccccc2)cc1` )
Response line: 550

---

For each of the compounds below, state its IC50.
TARGET OR SYSTEM: TF/VIIa (Homo sapiens)
Sequence (P08709 213-466 limits assumed): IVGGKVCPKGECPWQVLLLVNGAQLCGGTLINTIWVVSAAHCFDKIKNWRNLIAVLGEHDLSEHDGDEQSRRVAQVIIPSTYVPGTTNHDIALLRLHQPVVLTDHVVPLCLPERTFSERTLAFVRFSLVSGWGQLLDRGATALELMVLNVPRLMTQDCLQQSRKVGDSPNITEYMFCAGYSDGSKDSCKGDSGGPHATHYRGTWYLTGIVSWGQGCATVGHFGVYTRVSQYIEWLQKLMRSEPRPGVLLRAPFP
Sequence (P08709 61-212 partner limits assumed): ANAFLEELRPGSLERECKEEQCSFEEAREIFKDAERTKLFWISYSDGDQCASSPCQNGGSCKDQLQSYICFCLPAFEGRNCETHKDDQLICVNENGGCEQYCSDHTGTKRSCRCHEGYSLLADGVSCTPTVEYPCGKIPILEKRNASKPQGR
Sequence (P13726 33-295 partner): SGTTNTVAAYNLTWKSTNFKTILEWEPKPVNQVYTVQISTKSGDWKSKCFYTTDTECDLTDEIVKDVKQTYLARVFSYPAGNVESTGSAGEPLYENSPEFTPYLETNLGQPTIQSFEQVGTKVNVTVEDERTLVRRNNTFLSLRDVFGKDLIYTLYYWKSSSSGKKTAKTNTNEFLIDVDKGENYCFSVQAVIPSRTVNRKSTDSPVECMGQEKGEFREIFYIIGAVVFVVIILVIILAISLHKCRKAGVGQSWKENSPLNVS
ASSAY EXPLANATION: Inhibition of TF/VIIa (IC50, headed 'Affinity to Receptors')
Answers are plain numbers, in nM.

{"SMILES REPR": "CS(=O)(=O)c1ccccc1-c1ccc(CC(=O)N(Cc2cccc(C(=N)N)c2)c2ccccc2)cc1", "OBSERVED RESULT": 650}
{"SMILES REPR": "CCCN(Cc1cccc(C(=N)N)c1)C(=O)Cc1ccc(-c2ccccc2S(C)(=O)=O)cc1", "OBSERVED RESULT": 700}
{"SMILES REPR": "CCCN(Cc1cccc(C(=N)N)c1)C(=O)Cc1ccc(-c2ccccc2S(N)(=O)=O)cc1", "OBSERVED RESULT": 900}

Prompt line: Field request: IC50 | item: `N=C(N)c1cccc(CN(C(=O)Cc2ccc(-c3ccccc3S(N)(=O)=O)cc2)c2ccccc2)c1`
Response line: 1500

Every entry's value here was drawn from patent US20030187037A1.
